These measurements were taken from patent US8211911B2.

// values below are reported pIC50
Test system: NSCLC A549 cell line
assay-method-text: MTT assay against human tumor NSCLC A549 cell line
Assay type: cell-based
particulars: Homo sapiens
pIC50: −log10 of the molar value.

# compound, pIC50
rows = [
    ("CNC(=O)c1cccc2cc(Oc3ccnc4cc(OCCCN5CC(=O)C6(CC6)C5)c(OC)cc34)ccc12 [Example 27]", 6.40),
    ("CNC(=O)c1cccc2cc(Oc3ccnc4cc(OCCCN5CC(O)C6(CC6)C5)c(OC)cc34)ccc12 (stereo not drawn) [Example 28]", 6.00),
    ("CNC(=O)c1c(C)oc2cc(Oc3ccnc4cc(OCCN5CC(O)C6(CC6)C5)c(OC)cc34)ccc12 (stereo not drawn) [Example 13]", 6.70),
    ("C=C1CN(CCCOc2cc3nccc(Oc4ccc5[nH]c(C)cc5c4F)c3cc2OC)CC12CC2 [Example 10]", 7.00),
    ("COc1cc2c(Oc3ccc4[nH]c(C)cc4c3F)ccnc2cc1OCCN1CC(O)C2(CC2)C1 (stereo not drawn) [Example 3]", 7.00),
    ("C=C1CN(CCCOc2cc3nccc(Oc4ccc5c(C(=O)NC)cccc5c4)c3cc2OC)CC12CC2 [Example 30]", 6.05),
    ("C=C1CN(CCOc2cc3nccc(Oc4ccc5c(C(=O)NC)cccc5c4)c3cc2OC)CC12CC2 [Example 25]", 6.52),
    ("C=C1CN(CCCOc2cc3nccc(Oc4ccc5c(C(=O)NC)c(C)oc5c4)c3cc2OC)CC12CC2 [Example 20]", 6.52),
    ("CNC(=O)c1c(C)oc2cc(Oc3ccnc4cc(OCCCN5CC(O)C6(CC6)C5)c(OC)cc34)ccc12 (stereo not drawn) [Example 18]", 6.30),
    ("C=C1CN(CCOc2cc3nccc(Oc4ccc5[nH]c(C)cc5c4F)c3cc2OC)CC12CC2 [Example 5]", 7.00),
    ("CNC(=O)c1cccc2cc(Oc3ccnc4cc(OCCCN5CC(OC)C6(CC6)C5)c(OC)cc34)ccc12 (stereo not drawn) [Example 29]", 6.52),
    ("C=C1CN(CCOc2cc3nccc(Oc4ccc5c(C(=O)NC)c(C)oc5c4)c3cc2OC)CC12CC2 [Example 15]", 6.52),
    ("COc1cc2c(Oc3ccc4[nH]c(C)cc4c3F)ccnc2cc1OCCCN1CC(OC)C2(CC2)C1 (stereo not drawn) [Example 9]", 7.00),
    ("CNC(=O)c1cccc2cc(Oc3ccnc4cc(OCCN5CC(OC)C6(CC6)C5)c(OC)cc34)ccc12 (stereo not drawn) [Example 24]", 6.00),
    ("CNC(=O)c1c(C)oc2cc(Oc3ccnc4cc(OCCCN5CC(OC)C6(CC6)C5)c(OC)cc34)ccc12 (stereo not drawn) [Example 19]", 6.70),
]

* * *

Test system: NSCLC A549 cell line
assay-method-text: MTT assay against human tumor NSCLC A549 cell line
Assay type: cell-based
particulars: Homo sapiens
pIC50: −log10 of the molar value.
// values below are reported pIC50
quantity-measured: pIC50

# compound, result-number
records = [
    ("CNC(=O)c1cccc2cc(Oc3ccnc4cc(OCCN5CC(=O)C6(CC6)C5)c(OC)cc34)ccc12 [Example 22]", 6.15),
    ("COc1cc2c(Oc3ccc4[nH]c(C)cc4c3F)ccnc2cc1OCCCN1CC(O)C2(CC2)C1 (stereo not shown) [Example 8]", 7.00),
    ("COc1cc2c(Oc3ccc4[nH]c(C)cc4c3F)ccnc2cc1OCCN1CC(OC)C2(CC2)C1 (stereo not shown) [Example 4]", 7.10),
    ("CNC(=O)c1c(C)oc2cc(Oc3ccnc4cc(OCCN5CC(=O)C6(CC6)C5)c(OC)cc34)ccc12 [Example 12]", 6.52),
]
